# assay.target: TRKC-G623R (Homo sapiens, UniProt Q16288, G623R)
# Sequence (Q16288 32-839 G623R): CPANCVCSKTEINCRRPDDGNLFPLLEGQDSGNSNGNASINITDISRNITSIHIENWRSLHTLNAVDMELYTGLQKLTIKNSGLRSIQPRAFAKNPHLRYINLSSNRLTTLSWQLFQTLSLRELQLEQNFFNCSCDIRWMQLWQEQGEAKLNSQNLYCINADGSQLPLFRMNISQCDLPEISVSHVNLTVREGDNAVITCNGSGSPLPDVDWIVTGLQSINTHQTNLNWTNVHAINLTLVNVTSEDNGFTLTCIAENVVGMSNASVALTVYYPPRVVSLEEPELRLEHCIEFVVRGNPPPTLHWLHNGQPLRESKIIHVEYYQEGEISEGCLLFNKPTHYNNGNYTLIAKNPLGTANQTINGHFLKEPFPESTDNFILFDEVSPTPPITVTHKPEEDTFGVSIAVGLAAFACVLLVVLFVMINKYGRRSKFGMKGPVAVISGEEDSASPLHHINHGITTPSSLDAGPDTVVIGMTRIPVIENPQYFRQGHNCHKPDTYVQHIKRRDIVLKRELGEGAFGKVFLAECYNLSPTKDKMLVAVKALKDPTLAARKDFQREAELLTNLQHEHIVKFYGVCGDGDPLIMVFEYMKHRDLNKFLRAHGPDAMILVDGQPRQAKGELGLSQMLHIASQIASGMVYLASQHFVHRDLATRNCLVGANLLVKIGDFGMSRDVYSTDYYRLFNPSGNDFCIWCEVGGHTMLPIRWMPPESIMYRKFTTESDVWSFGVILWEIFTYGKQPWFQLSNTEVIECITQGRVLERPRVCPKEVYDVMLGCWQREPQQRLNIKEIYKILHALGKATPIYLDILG
# assay.info: TRK kinase mutant inhibition (HTRF), TRKC-G623R
pIC50: −log10 of the molar value.
quantity.name: pIC50

Solved entries (count: 3):
# compound, pIC50
data = [
    ("C[C@@H](Nc1ccn2ncc(-c3cn[nH]c3)c2n1)c1cc(F)ccc1OCCF", 9.03),
    ("C[C@@H](Nc1ccn2ncc(-c3cn[nH]c3)c2n1)c1cc(F)ccc1OCC(F)(F)F", 9.14),
    ("CC(Nc1ccn2ncc(-c3cnn(C(F)F)c3)c2n1)c1cc(F)ccc1OCCF (stereo not shown)", 9.03),
]

P. C[C@@H](Nc1ccn2ncc(-c3cnn(CCO)c3)c2n1)c1cc(F)ccc1OCC(F)(F)F
Q. C[C@@H](Nc1ccn2ncc(-c3cnn(C)c3)c2n1)c1cc(F)ccc1OC(F)F
Query string: I'm curious whether P or Q has the smaller pIC50 number. Which is it? Your choice should be expressed through its label.
Result string: Q
(Q: 8.54, P: 8.96)

Attribution: patent US20220177477A1
